SYSTEM_UNDER_TEST: Tryptase (Homo sapiens)
EXPERIMENTAL_PROTOCOL: In Vitro Tryptase Inhibition Assay (hydrolysis of tosyl-GlyProLys-p-nitroanilide, Tris-HCl pH 8.2)
Format: biochemical
CONDITION: Table III, ambient light (no parentheses)
EXPERIMENTAL_READOUT: Ki (µM)
Numeric answer only, unit µM assumed.

Ki measured on `COC(=O)[C@@H]1C[C@@H](O)CN1C(=O)[C@H](CCCNC(=N)N)NC(=O)c1c(O)ccc2ccccc12` = 749

* * *

SYSTEM_UNDER_TEST: Tryptase (Homo sapiens)
EXPERIMENTAL_PROTOCOL: biochemical
CONDITION: Ki ', Table IV; pH 7.5
Description: Compounds (approx. 1 mg) to be assayed against tryptase were reconstituted in dimethylsulfoxide (DMSO) and diluted 1:10 into buffer containing 50 millimolar (mM) Tris-HCl at pH 8.2, and containing 100 mM NaCl, 0.05% Tween-20. […] The microtiter plates were immediately transferred to a UV/MAX Kinetic Microplate Reader (Molecular Devices) and hydrolysis of the chromogenic substrate was followed spectrophotometrically at 405 nM for 5 minutes. […]
EXPERIMENTAL_READOUT: Ki (µM)
Numeric answer only, unit µM assumed.

Ki measured on N=C(N)NCCC[C@H](NC(=O)c1ccc2ccccc2c1O)C(=O)N1CCC[C@H]1C(N)=O [Compound 3] = 5.4

* * *

SYSTEM_UNDER_TEST: Tryptase (Homo sapiens)
EXPERIMENTAL_PROTOCOL: In Vitro Tryptase Inhibition Assay (hydrolysis of tosyl-GlyProLys-p-nitroanilide, Tris-HCl pH 8.2)
Assay type: biochemical
CONDITION: Table III, parentheses: "dark" conditions (aluminum foil)
EXPERIMENTAL_READOUT: pKi
Expect pKi as a plain number equal to -log10 of the molar concentration.

Hey, Tryptase (Homo sapiens) data for `N=C(N)Nc1ccc(C[C@H](NC(=O)c2ccc3ccccc3c2O)C(=O)N2CCC[C@H]2C(N)=O)cc1` : pKi came out at 4.74

Hey, Tryptase (Homo sapiens) data for `N=C(N)NCCC[C@H](NC(=O)c1ccc2ccccc2c1O)C(=O)N1C[C@H](O)C[C@H]1C(N)=O` : pKi came out at 4.40

Hey, Tryptase (Homo sapiens) data for `CN(CC(N)=O)C(=O)[C@H](CCCNC(=N)N)NC(=O)c1c(O)ccc2ccccc12` : pKi came out at 3.20

Hey, Tryptase (Homo sapiens) data for `N=C(N)NCCC[C@H](NC(=O)c1ccc2ccccc2c1O)C(=O)N1CCC[C@@H]1C(N)=O` : pKi came out at 3.09

* * *

SYSTEM_UNDER_TEST: UniProtKB Q15661
EXPERIMENTAL_PROTOCOL: In Vitro Tryptase Inhibition Assay (hydrolysis of tosyl-GlyProLys-p-nitroanilide, Tris-HCl pH 8.2)
Format: biochemical
CONDITION: Table II, ambient light (no parentheses)
pKi: −log10 of the molar value.
The threshold is inclusive: pKi of exactly 4 counts as Y; values below receive N.

Q: Hi team, for `N=C(N)NCCC[C@H](NC(=O)c1cccnc1O)C(=O)N1CCC[C@H]1C(N)=O` , is the recorded pKi at or above 4?
A: N

Q: Hi team, for `N=C(N)NCCC[C@H](NC(=O)c1ccc2ccccc2c1O)C(=O)N1CCC[C@H]1C(=O)N1CCC(C(N)=O)CC1` , is the recorded pKi at or above 4?
A: N

Q: Hi team, for `Cc1ccc(C(=O)N[C@@H](CCCNC(=N)N)C(=O)N2CCC[C@H]2C(N)=O)c(O)c1` , is the recorded pKi at or above 4?
A: N

Q: Hi team, for `CN(C)C(=O)[C@@H]1CCCN1C(=O)[C@H](CCCNC(=N)N)NC(=O)c1c(O)ccc2ccccc12` , is the recorded pKi at or above 4?
A: Y

Q: Hi team, for `COC(=O)[C@@H]1CCCN1C(=O)[C@H](CCCNC(=N)N)NC(=O)c1c(O)ccc2ccccc12` , is the recorded pKi at or above 4?
A: N

Q: Hi team, for `Cc1ccc2c(O)c(C(=O)N[C@@H](CCCNC(=N)N)C(=O)N3CCC[C@H]3C(N)=O)cnc2n1` , is the recorded pKi at or above 4?
A: N

Q: Hi team, for `N=C(N)NCCC[C@H](NC(=O)c1c(O)ccc2ccccc12)C(=O)N1CCC[C@H]1C(N)=O` , is the recorded pKi at or above 4?
A: Y

Q: Hi team, for `N=C(N)NCCC[C@H](NC(=O)c1cc(O)ccc1O)C(=O)N1CCC[C@H]1C(N)=O` , is the recorded pKi at or above 4?
A: Y

* * *

SYSTEM_UNDER_TEST: Tryptase (Homo sapiens)
EXPERIMENTAL_PROTOCOL: biochemical
CONDITION: Ki ', Table IV; pH 6.5
EXPERIMENTAL_READOUT: pKi
Expect pKi as a plain number equal to -log10 of the molar concentration.

pKi measured on `N=C(N)NCCC[C@H](NC(=O)c1ccc2ccccc2c1O)C(=O)N1CCC[C@H]1C(N)=O` = 4.85

* * *

SYSTEM_UNDER_TEST: Tryptase (Homo sapiens, UniProt Q15661)
Sequence (Q15661 31-275): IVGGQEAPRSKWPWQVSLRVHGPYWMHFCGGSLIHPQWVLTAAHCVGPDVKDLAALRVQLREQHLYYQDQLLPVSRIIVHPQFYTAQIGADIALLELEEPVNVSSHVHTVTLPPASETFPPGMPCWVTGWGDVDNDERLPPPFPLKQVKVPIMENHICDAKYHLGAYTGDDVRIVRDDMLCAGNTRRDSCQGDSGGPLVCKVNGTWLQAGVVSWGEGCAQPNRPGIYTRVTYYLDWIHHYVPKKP
EXPERIMENTAL_PROTOCOL: biochemical
CONDITION: Ki ', Table IV; pH 8.0
EXPERIMENTAL_READOUT: Ki (µM)
Numeric answer only, unit µM assumed.

Ki measured on `N=C(N)NCCC[C@H](NC(=O)c1ccc2ccccc2c1O)C(=O)N1CCC[C@H]1C(N)=O` = 6.1
